System: P. aeruginosa H188
Assay type: cell-based, Pseudomonas aeruginosa
Conditions: H188
parameter measured: Minimum Inhibitory Concentration (activity) (µg/mL)
Quick note: give the figure in µg/mL, leave out the unit.

Looking for the measured Minimum Inhibitory Concentration (activity) of CC(C)C[C@@H]1NC(=O)[C@H](CCCCN)NC(=O)[C@H](C(C)C)NC(=O)[C@H](CCCCN)NC(=O)[C@H](CC(C)C)NC(=O)[C@@H]2CCCN2C(=O)[C@@H](Cc2ccc(O)cc2)NC(=O)[C@H](C(C)C)NC(=O)[C@H](CCCCN)NC(=O)[C@H](CC(C)C)NC(=O)[C@@H](CCCCN)NC(=O)[C@H](C(C)C)NC(=O)[C@@H]2CCCN2C(=O)[C@@H](Cc2ccc(O)cc2)NC1=O [GS14K2] , can you help?
62

* * *

Tested on: P. aeruginosa H187
Assay type: cell-based, Pseudomonas aeruginosa
Details: H187
Documented Minimum Inhibitory Concentration (activity) across a set of compounds

Looking for the measured Minimum Inhibitory Concentration (activity) of CC(C)C[C@@H]1NC(=O)[C@H](CCCCN)NC(=O)[C@H](C(C)C)NC(=O)[C@H]2CCCN2C(=O)[C@@H](Cc2ccc(O)cc2)NC(=O)[C@H](CC(C)C)NC(=O)[C@H](CCCCN)NC(=O)[C@H](C(C)C)NC(=O)[C@H](CCCCN)NC(=O)[C@H](CC(C)C)NC(=O)[C@@H]2CCCN2C(=O)[C@@H](Cc2ccc(O)cc2)NC(=O)[C@H](C(C)C)NC(=O)[C@H](CCCCN)NC1=O , can you help?
>200 µg/mL

Next record, please: CC(C)C[C@@H]1NC(=O)[C@H](CCCCN)NC(=O)[C@H](C(C)C)NC(=O)[C@@H]2CCCN2C(=O)[C@@H](Cc2ccc(O)cc2)NC(=O)[C@H](CC(C)C)NC(=O)[C@H](CCCCN)NC(=O)[C@H](C(C)C)NC(=O)[C@@H](CCCCN)NC(=O)[C@H](CC(C)C)NC(=O)[C@@H]2CCCN2C(=O)[C@@H](Cc2ccc(O)cc2)NC(=O)[C@H](C(C)C)NC(=O)[C@H](CCCCN)NC1=O
50 µg/mL

Next record, please: CC(C)C[C@@H]1NC(=O)[C@H](CCCCN)NC(=O)[C@@H](C(C)C)NC(=O)[C@@H]2CCCN2C(=O)[C@@H](Cc2ccc(O)cc2)NC(=O)[C@H](CC(C)C)NC(=O)[C@H](CCCCN)NC(=O)[C@H](C(C)C)NC(=O)[C@H](CCCCN)NC(=O)[C@H](CC(C)C)NC(=O)[C@@H]2CCCN2C(=O)[C@@H](Cc2ccc(O)cc2)NC(=O)[C@H](C(C)C)NC(=O)[C@H](CCCCN)NC1=O
60 µg/mL

* * *

Documented Minimum Inhibitory Concentration (activity) across a set of compounds
Tested on: C. xeroses
Type: cell-based, Corynebacterium xerosis
Quick note: give the figure in µg/mL, leave out the unit.

Reference set (2 entries):
* CC(C)C[C@@H]1NC(=O)[C@H](CCCCN)NC(=O)[C@H](CC(C)C)NC(=O)[C@@H]2CCCN2C(=O)[C@@H](Cc2ccc(O)cc2)NC(=O)[C@H](CC(C)C)NC(=O)[C@@H](CCCCN)NC(=O)[C@H](CC(C)C)NC(=O)[C@H](CCCCN)NC(=O)[C@H](CC(C)C)NC(=O)[C@@H]2CCCN2C(=O)[C@@H](Cc2ccc(O)cc2)NC(=O)[C@H](CC(C)C)NC(=O)[C@H](CCCCN)NC1=O | 1
* CC(C)C[C@@H]1NC(=O)[C@H](CCCCN)NC(=O)[C@H](C)NC(=O)[C@@H]2CCCN2C(=O)[C@@H](Cc2ccc(O)cc2)NC(=O)[C@H](CC(C)C)NC(=O)[C@H](CCCCN)NC(=O)[C@H](C)NC(=O)[C@H](CCCCN)NC(=O)[C@H](CC(C)C)NC(=O)[C@@H]2CCCN2C(=O)[C@@H](Cc2ccc(O)cc2)NC(=O)[C@H](C)NC(=O)[C@@H](CCCCN)NC1=O | 3.1

Shift focus to the following entry.
Looking for the measured Minimum Inhibitory Concentration (activity) of CC(C)C[C@@H]1NC(=O)[C@H](CCCCN)NC(=O)[C@H](C(C)C)NC(=O)[C@@H]2CCCN2C(=O)[C@@H](Cc2ccc(O)cc2)NC(=O)[C@H](CC(C)C)NC(=O)[C@H](CCCCN)NC(=O)[C@H](C(C)C)NC(=O)[C@H](CCCCN)NC(=O)[C@H](CC(C)C)NC(=O)[C@@H]2CCCN2C(=O)[C@@H](Cc2ccc(O)cc2)NC(=O)[C@H](C(C)C)NC(=O)[C@H](CCCCN)NC1=O , can you help?
9

Just for reference, patent US6358921B1 is where these values come from.
